Test system: 349418-098-R tumor spheroid viability
Assay notes: Anticancer human tumor 349418-098-R patient-derived lung adenocarcinoma cell line growth inhibition
Measurement setup: second compound 0.003 µM; first compound 0.316 µM; stronger effect = lower value; spheroids with HUVEC and MSC
Label class 1 when viability, T/C < 3%; otherwise class 0.

[ask] Please check: viability, T/C for COc1ccc([C@@H](O)c2cc(-c3ncnc4cc(N5CCOCC5)ccc34)c(F)cc2Cl)nn1 + COc1cc2c(cc1O)CCNC21CSC2c3c(OC(C)=O)c(C)c4c(c3C(COC1=O)N1C(O)C3Cc5cc(C)c(OC)c(O)c5C(C21)N3C)OCO4 , strictly under 3% or not?
[reply] class 1

[ask] Threshold test, viability, T/C < 3%: CC(C)n1c(=O)n(C)c2cnc3cc(F)c(-c4ccc(OCCCN5CCCCC5)nc4)cc3c21 + CC[C@@]1(O)C(=O)OCc2c1cc1n(c2=O)Cc2cc3c(CN(C)C)c(O)ccc3nc2-1
[reply] class 0

[ask] Criterion: viability, T/C strictly below 3%. Is it met by [2H]c1nc(C)nc([2H])c1-c1cc(NC[C@@H](C)c2cccc3c(C(=O)NC)ccnc23)ncn1 + CC[C@@]1(O)C(=O)OCc2c1cc1n(c2=O)Cc2cc3c(CN(C)C)c(O)ccc3nc2-1 ?
[reply] class 0

[ask] Report whether reported viability, T/C is lower than 3% (strictly) for CC(C)n1c(=O)n(C)c2cnc3cc(F)c(-c4ccc(OCCCN5CCCCC5)nc4)cc3c21 + COc1cc2c(cc1O)CCNC21CSC2c3c(OC(C)=O)c(C)c4c(c3C(COC1=O)N1C(O)C3Cc5cc(C)c(OC)c(O)c5C(C21)N3C)OCO4
[reply] class 1

[ask] Is the reported viability, T/C for [2H]c1nc(C)nc([2H])c1-c1cc(NC[C@@H](C)c2cccc3c(C(=O)NC)ccnc23)ncn1 + COc1cc2c(cc1O)CCNC21CSC2c3c(OC(C)=O)c(C)c4c(c3C(COC1=O)N1C(O)C3Cc5cc(C)c(OC)c(O)c5C(C21)N3C)OCO4 strictly below 3%?
[reply] class 1

***
[ask] Lab note: viability, T/C threshold 3%. Does this compound come in strictly under it? COc1cc(C)[nH]c(=O)c1CN1CCc2c(Cl)cc(C(OC)C3COC3)c(Cl)c2C1=O (configuration not stated) + CC[C@@]1(O)C(=O)OCc2c1cc1n(c2=O)Cc2cc3c(CN(C)C)c(O)ccc3nc2-1
[reply] class 0

[ask] Does Cc1cc(C)c(CNC(=O)c2cc(-c3ccc(CN4CCOCC4)cc3)cc3c2cnn3C2CCCC2)c(=O)[nH]1 + COc1cc2c(cc1O)CCNC21CSC2c3c(OC(C)=O)c(C)c4c(c3C(COC1=O)N1C(O)C3Cc5cc(C)c(OC)c(O)c5C(C21)N3C)OCO4 have viability, T/C strictly under 3%?
[reply] class 1

====

Test system: 349418-098-R tumor spheroid viability
Assay notes: Anticancer human tumor 349418-098-R cell line growth inhibition;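 also: spheroids exposed to compound for 7 days before measurement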
Measurement setup: curve of first compound; second compound 0.000949 µM; spheroids with HUVEC and MSC
Reported property: IC50

Reference set (5 entries):
[ask] Report IC50 for [2H]c1nc(C)nc([2H])c1-c1cc(NC[C@@H](C)c2cccc3c(C(=O)NC)ccnc23)ncn1 + COc1cc2c(cc1O)CCNC21CSC2c3c(OC(C)=O)c(C)c4c(c3C(COC1=O)N1C(O)C3Cc5cc(C)c(OC)c(O)c5C(C21)N3C)OCO4 please.
[reply] < 31.6 nM

[ask] Quick check: IC50 of CC1COCCN1c1cc(-c2ccnn2C)c2ccnc(-c3ccn[nH]3)c2n1 (stereo unspecified) + COc1cc2c(cc1O)CCNC21CSC2c3c(OC(C)=O)c(C)c4c(c3C(COC1=O)N1C(O)C3Cc5cc(C)c(OC)c(O)c5C(C21)N3C)OCO4 ?
[reply] < 31.6 nM

[ask] Tell me the measured IC50 of COc1ccc([C@@H](O)c2cc(-c3ncnc4cc(N5CCOCC5)ccc34)c(F)cc2Cl)nn1 + COc1cc2c(cc1O)CCNC21CSC2c3c(OC(C)=O)c(C)c4c(c3C(COC1=O)N1C(O)C3Cc5cc(C)c(OC)c(O)c5C(C21)N3C)OCO4 , please.
[reply] < 31.6 nM

[ask] IC50 for CC(C)n1c(=O)n(C)c2cnc3cc(F)c(-c4ccc(OCCCN5CCCCC5)nc4)cc3c21 + COc1cc2c(cc1O)CCNC21CSC2c3c(OC(C)=O)c(C)c4c(c3C(COC1=O)N1C(O)C3Cc5cc(C)c(OC)c(O)c5C(C21)N3C)OCO4 ?
[reply] < 31.6 nM

[ask] # lookup: IC50 of Cn1ncnc1[C@H]1c2n[nH]c(=O)c3cc(F)cc(c23)N[C@@H]1c1ccc(F)cc1 + COc1cc2c(cc1O)CCNC21CSC2c3c(OC(C)=O)c(C)c4c(c3C(COC1=O)N1C(O)C3Cc5cc(C)c(OC)c(O)c5C(C21)N3C)OCO4
[reply] < 9.49 nM

Now consider a different molecule.
[ask] Given Cc1sc2c(c1C)C(c1ccc(Cl)cc1)=NC(CC(=O)Nc1ccc(O)cc1)c1nnc(C)n1-2 (stereo unspecified) + COc1cc2c(cc1O)CCNC21CSC2c3c(OC(C)=O)c(C)c4c(c3C(COC1=O)N1C(O)C3Cc5cc(C)c(OC)c(O)c5C(C21)N3C)OCO4 , state its recorded IC50.
[reply] < 9.49 nM
